Form field: inhibition at 1 µM (one value per entry).
system.under.test: 11β-HSD1 (Homo sapiens, UniProt P28845)
Construct: expressed in transfected cells; host or cells: HEK 293 (stably transfected, HEK 293/HSD11B1)
Sequence (P28845 whole entry): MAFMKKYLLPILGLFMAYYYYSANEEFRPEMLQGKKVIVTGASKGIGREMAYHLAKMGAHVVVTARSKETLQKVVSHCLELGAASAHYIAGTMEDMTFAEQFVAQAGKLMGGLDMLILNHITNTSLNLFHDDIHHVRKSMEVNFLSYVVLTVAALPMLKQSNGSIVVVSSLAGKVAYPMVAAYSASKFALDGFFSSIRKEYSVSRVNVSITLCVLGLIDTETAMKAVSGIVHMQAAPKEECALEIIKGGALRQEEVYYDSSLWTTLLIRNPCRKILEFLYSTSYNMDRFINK
method.notes: 11β-HSD1 HEK assay (cell based assay, SPA)
measurement.conditions: HEK293; at 1 μM; whole HEK 293 cells stably transfected with the HSD11B1 gene, 3H-cortisone substrate; read-out: Activity (inhibition of 11β-HSD1)
reported.metric: inhibition at 1 µM

compound: Cc1cc(C)c(C(=O)CS(=O)(=O)c2ccccn2)c(C)c1
value: < 20%

compound: O=C(CSCc1ccc(C(F)(F)F)nc1)C12CC3CC(CC(C3)C1)C2
value: 20 to 60%

compound: O=C(CS(=O)(=O)c1ccccn1)C1(c2ccc(Cl)cc2)CCC1
value: < 20%

compound: O=C(C[S+]([O-])Cc1ccncc1)C12CC3CC(CC(C3)C1)C2 (stereo not drawn)
value: > 60%

compound: Cc1cc(C)c(C(=O)CSc2nccn2C)c(C)c1
value: < 20%

compound: COCc1nnc(SCC(=O)C23CC4CC(CC(C4)C2)C3)n1C
value: > 60%

compound: CCNC(=O)c1ccc(SCC(=O)C23CC4CC(CC(C4)C2)C3)nc1
value: > 60%

compound: Cn1ccnc1S(=O)(=O)CC(=O)C1(c2ccc(Cl)cc2)CCC1
value: < 20%

compound: NC(=O)c1ccc(SCC(=O)C23CC4CC(CC(C4)C2)C3)nc1
value: > 60%

* * *

compound: CNC(=O)c1ccc(SCC(=O)C23CC4CC(CC(C4)C2)C3)nc1
melting point: 184 to 185.5 °C

compound: O=C(Nc1nnc([S+]([O-])CC(=O)C23CC4CC(CC(C4)C2)C3)s1)C1CC1 (centres unmarked)
melting point: 172.5 to 174 °C

compound: Cn1ccnc1[S+]([O-])C(C)(C)C(=O)C12CC3CC(CC(C3)C1)C2 (centres unmarked)
melting point: 98 to 102 °C

compound: Cc1nnc(SCC(=O)C23CC4CC(CC(C4)C2)C3)n1C
melting point: 113 to 114 °C

compound: CSc1nnc(SCC(=O)C23CC4CC(CC(C4)C2)C3)s1
melting point: 133.5 to 135 °C

compound: O=C(CS(=O)(=O)Cc1ccc(Cl)nc1)C12CC3CC(CC(C3)C1)C2
melting point: 159 to 161 °C

compound: Cc1nnc(SCC(=O)C23CC4CC(CC(C4)C2)C3)n1C(C)C
melting point: 119 to 120.5 °C

compound: O=C(C[S+]([O-])Cc1ccccn1)C12CC3CC(CC(C3)C1)C2 (centres unmarked)
melting point: 87 to 88.5 °C

compound: O=C(/C=C/c1cccnc1)C12CC3CC(CC(C3)C1)C2
melting point: 107 to 108.5 °C

compound: CN(C)C(=O)c1ccc(SCC(=O)C23CC4CC(CC(C4)C2)C3)nc1
melting point: 62.5 to 64.5 °C

compound: O=C(CS(=O)(=O)c1ccncc1)C12CC3CC(CC(C3)C1)C2
melting point: 143 to 144 °C

compound: O=C(CSc1ccncc1)C12CC3CC(CC(C3)C1)C2
melting point: 114 to 115 °C

compound: O=C(O)c1ccc(SCC(=O)C23CC4CC(CC(C4)C2)C3)nc1
melting point: 174 to 176 °C

compound: CN(C)c1nnc(SCC(=O)C23CC4CC(CC(C4)C2)C3)s1
melting point: 150 to 151 °C

compound: O=C(CSCc1cccnc1)C12CC3CC(CC(C3)C1)C2
melting point: 45 to 47 °C

compound: Cn1cnnc1[S+]([O-])CC(=O)C12CC3CC(CC(C3)C1)C2 (centres unmarked)
melting point: 124.5 to 127 °C

compound: CCNC(=O)c1ccc(SCC(=O)C23CC4CC(CC(C4)C2)C3)nc1
melting point: 135.5 to 137 °C

compound: Cn1cnnc1S(=O)(=O)CC(=O)C12CC3CC(CC(C3)C1)C2
melting point: 149 to 150 °C

compound: O=C(CSCc1ccc(Cl)nc1)C12CC3CC(CC(C3)C1)C2
melting point: 88 to 90 °C

compound: O=C(CS(=O)(=O)Cc1cccc[n+]1[O-])C12CC3CC(CC(C3)C1)C2
melting point: 225 to 227.5 °C

compound: O=C(COc1cccnc1)C12CC3CC(CC(C3)C1)C2
melting point: 73 to 75 °C

compound: Cn1nnnc1SCC(=O)C12CC3CC(CC(C3)C1)C2
melting point: 112 to 113 °C

compound: Cc1nnc(SCC(=O)C23CC4CC(CC(C4)C2)C3)s1
melting point: 102 to 105 °C

compound: O=C(CSCc1ccccn1)C12CC3CC(CC(C3)C1)C2
melting point: 38 to 39 °C

compound: Cn1c(SCC(=O)C23CC4CC(CC(C4)C2)C3)nc2ccccc21
melting point: 146 to 147.5 °C

compound: Cc1cccc([S+]([O-])CC(=O)C23CC4CC(CC(C4)C2)C3)n1 (centres unmarked)
melting point: 75 to 76 °C
